# System: L1210 leukemia ip in BDF1 mice, survival T/C
# ASSAY_INFO: NCI In Vivo Anticancer Drug Screen. Data for tumor model L1210 Leukemia (intraperitoneal) in B6D2F1 (BDF1) mice
# CONDITION_PARAMETERS: endpoint: mean survival time; dose: 400.0 mg/kg/injection; schedule: Q01DX001 (ip); vehicle: saline with Tween-80; higher = longer survival
Toxic doses and inconclusive results are not listed.
Give T/C for every item shown.

What value of measured T/C is listed for COc1cccc(C(O)c2cnc(C)n2Cc2ccccc2)c1 (configuration not stated) ? 103 % of control

What value of measured T/C is listed for CCC[As](=O)(O)CC[As](=O)(O)CCC ? 96 % of control

What value of measured T/C is listed for CCCCCCCCCCC(C)CCCCCCCC (configuration not stated) ? 94 % of control

What value of measured T/C is listed for CCN(CC)c1ccc(N=Nc2ncn[nH]2)c(O)c1 ? 88 % of control

What value of measured T/C is listed for CCCCCCCCC(CCc1ccccc1)CCc1ccccc1 ? 96 % of control

What value of measured T/C is listed for CC(=O)Nc1ccc(NC(=O)c2ccc(Cl)cc2)cc1 ? 87 % of control

What value of measured T/C is listed for Cc1nnc(N(C)C)nc1C ? 108 % of control

What value of measured T/C is listed for CC(C)N(C)/N=N/N(C)C(C)C ? 117 % of control

What value of measured T/C is listed for COc1cccc(NC(=O)NC(C)(C)C)c1 ? 111 % of control

What value of measured T/C is listed for COc1cc(C(=O)NNC(=O)c2ccc(Cl)c(Cl)c2)cc(OC)c1OC ? 90 % of control

What value of measured T/C is listed for c1ccc(CCCCCCCCCCc2ccccc2)cc1 ? 98 % of control

What value of measured T/C is listed for CCN(C=O)c1ccc(NC=O)cc1 ? 94 % of control
